settings: in methanol, 310.65 K
MEASURED METRIC: solubility (mole fraction)
Give your answer as a number; write no unit.

Give its solubility (mole fraction) value. Item: `CC(C)c1ncc[nH]1`
0.376

---

details: in toluene, 313.15 K
MEASURED METRIC: solubility (mole fraction)
Give your answer as a number; write no unit.

Give its solubility (mole fraction) value. Item: `CC(C)c1ncc[nH]1`
0.0437

---

conditions: in toluene, 285.65 K
MEASURED METRIC: solubility (mole fraction)
Give your answer as a number; write no unit.

Give its solubility (mole fraction) value. Item: `CC(C)c1ncc[nH]1`
0.0248

---

conditions: in ethyl acetate, 310.65 K
MEASURED METRIC: solubility (mole fraction)
Give your answer as a number; write no unit.

Give its solubility (mole fraction) value. Item: `CC(C)c1ncc[nH]1`
0.112

---

conditions: in acetonitrile, 310.65 K
MEASURED METRIC: solubility (mole fraction)
Give your answer as a number; write no unit.

Give its solubility (mole fraction) value. Item: `CC(C)c1ncc[nH]1`
0.0538

---

conditions: in acetonitrile, 290.65 K
MEASURED METRIC: solubility (mole fraction)

Give its solubility (mole fraction) value. Item: `CC(C)c1ncc[nH]1`
0.0343

---

details: in methanol, 305.65 K
MEASURED METRIC: solubility (mole fraction)
Give your answer as a number; write no unit.

Give its solubility (mole fraction) value. Item: `CC(C)c1ncc[nH]1`
0.348

---

conditions: in n-propanol, 313.15 K
MEASURED METRIC: solubility (mole fraction)
Give your answer as a number; write no unit.

Give its solubility (mole fraction) value. Item: `CC(C)c1ncc[nH]1`
0.18

---

conditions: in 2-butanone, 285.65 K
MEASURED METRIC: solubility (mole fraction)
Give your answer as a number; write no unit.

Give its solubility (mole fraction) value. Item: `CC(C)c1ncc[nH]1`
0.127

---

conditions: in toluene, 308.15 K
MEASURED METRIC: solubility (mole fraction)
Give your answer as a number; write no unit.

Give its solubility (mole fraction) value. Item: `CC(C)c1ncc[nH]1`
0.0394

---

details: in acetonitrile, 305.65 K
MEASURED METRIC: solubility (mole fraction)
Give your answer as a number; write no unit.

Give its solubility (mole fraction) value. Item: `CC(C)c1ncc[nH]1`
0.0481

---

details: in acetonitrile, 280.65 K
MEASURED METRIC: solubility (mole fraction)
Give your answer as a number; write no unit.

Give its solubility (mole fraction) value. Item: `CC(C)c1ncc[nH]1`
0.0275

---

settings: in methanol, 300.65 K
MEASURED METRIC: solubility (mole fraction)
Give your answer as a number; write no unit.

Give its solubility (mole fraction) value. Item: `CC(C)c1ncc[nH]1`
0.322

---

settings: in 2-butanone, 303.15 K
MEASURED METRIC: solubility (mole fraction)
Give your answer as a number; write no unit.

Give its solubility (mole fraction) value. Item: `CC(C)c1ncc[nH]1`
0.177

---

settings: in n-propanol, 308.15 K
MEASURED METRIC: solubility (mole fraction)

Give its solubility (mole fraction) value. Item: `CC(C)c1ncc[nH]1`
0.166

---

conditions: in methanol, 295.65 K
MEASURED METRIC: solubility (mole fraction)
Give your answer as a number; write no unit.

Give its solubility (mole fraction) value. Item: `CC(C)c1ncc[nH]1`
0.297

---

settings: in acetone, 313.15 K
MEASURED METRIC: solubility (mole fraction)
Give your answer as a number; write no unit.

Give its solubility (mole fraction) value. Item: `CC(C)c1ncc[nH]1`
0.166
